# Test system: NCI-H23 lung
# test_method_notes: NCI tumour cell line growth inhibition, 48 h
quantity: TGI (µM)
Give bare numbers, in µM.

substance_smiles	TGI / µM
Cc1[nH]nc2ccc3nc(-c4ccc5[nH]ncc5c4)c4c(c3c12)CCCC4	11.2
O=C1CC[C@H](c2ccc(O)c3c2C(=O)[C@@H]2O[C@@H]2C3=O)c2cccc(O)c21	20.4
O=[N+]([O-])C(=C(N1CCCCC1)N1CCCCC1)/C(Cl)=C(\Cl)[N+](=O)[O-]	14

With those in mind, consider the next molecule.
// sample `Cc1ccc(C(=O)C#Cc2c[nH]c(=O)[nH]c2=O)cc1` , its TGI was 39.6

====

# Tested on: SNB-19 CNS
# test_method_notes: NCI tumour cell line growth inhibition, 48 h
quantity: TGI

Worked cases, TGI given:
>>> df
                                   compound  observed_result
0  O=[N+]([O-])c1ccc(N/N=C(\c2ccccc2)c2ccccn2)nc1        > 42.5 µM
1  CCOC(=O)c1c[nH]cc1-c1cn(S(=O)(=O)c2ccccc2)cc1C         > 100 µM
2        Cc1cc2cc3cc(C)c(N)cc3[n+](C)c2cc1N          12.4 µM
3  CC(=O)NC1C(OC2C(CO)OC(OCC3OC(n4ccc(N)nc4=O)C(O)C3O)C(NC(C)=O)C2O)OC(CO)C(O)C1O (stereo not given)         > 100 µM
4            C/C(=N\Nc1nc2ccccc2s1)c1cnccn1        > 29.4 µM
5  O=C1CC[C@H](c2ccc(O)c3c2C(=O)[C@@H]2O[C@@H]2C3=O)c2cccc(O)c21          33.6 µM
6  COc1ccc(C(=O)C(C(=O)C(=O)NC2C3CC4CC(C3)CC2C4)c2ccc(OC)cc2)cc1 (stereo not given)         > 100 µM
7  COc1cc(C2CC(c3ccccc3)=NN2C(C)=O)cc(OC)c1OC (stereo not given)         > 100 µM

For every record below, what is its TGI?
1. COc1ccc2c(c1)CCN1CCCc3ccc(OC)cc3C21 (stereo not given)
2. COc1cc(/C=C2\C(=O)N(c3ccccc3)c3ccccc32)cc(OC)c1OC

Data returned:
> 100 µM
25.5 µM

====

# Test system: MCF7 breast
# test_method_notes: NCI tumour cell line growth inhibition, 48 h
Provide the reported TGI of each item.

Some solved entries appear below for comparison.
In [3]: df
Out[3]:
                                   molecule  quantity  observed_result
0  C/C=C1\CNC1C(=O)O (configuration not stated)       TGI         > 100 µM
1  CC(C)n1c(=O)n(C)c2cnc3cc(F)c(-c4ccc(OCCCN5CCCCC5)nc4)cc3c21       TGI          21.6 µM
2  CC1=CC(=O)C(=CN2C(=O)/C(=C\c3cccnc3)NC2=S)C(=O)O1       TGI         > 100 µM

Look at each molecule and report its TGI.
1. Cn1c(=O)n2c(-c3ccccc3)c(-c3ccccc3)n2c1=O
2. NC1=CC(=O)c2nc3ccccc3c3ccnc1c23
3. C=C1CC2CC(=O)C(O)C(C1)C2 (configuration not stated)

Data returned:
> 100 µM
> 100 µM
> 100 µM

Memo: `C[C@H](N[C@H]1CCC[C@]1(O)C#Cc1ccc2c(c1)OCO2)c1ccccc1` , reported TGI: > 25 µM

====

# Test system: M14 melanoma
# test_method_notes: NCI tumour cell line growth inhibition, 48 h
quantity: TGI

Example entries begin here.
In [3]: df
Out[3]:
                                   compound  quantity  observed_result
0  CN(C)C(=S)N/N=C(\C(=N/NC(=S)N(C)C)c1ccccn1)c1ccccn1       TGI          42.3 µM
1  O=C(NC1CCCCC1)NS(=O)(=O)c1ccc(-n2nc3c(c2-c2ccc(Cl)cc2)Cc2ccccc2-3)cc1       TGI         > 100 µM
2  COc1ccc(OC)c(/C=C2\COc3ccc(O)c(O)c3C2=O)c1       TGI           6.9 µM
3  CNS(=O)(=O)c1ccc2[nH]c(O)c(C3=Nc4ccccc4C3=O)c2c1       TGI         > 100 µM
4          CC(C)n1c(=O)[nH]n(-c2ccccc2)c1=O       TGI         > 100 µM

For every item below, please supply its TGI.
1. COc1cc(C2CC(c3ccccc3)=NN2C(C)=O)cc(OC)c1OC (configuration not stated)
2. CCC12CC(c3ccccc3)C(C(=O)N1)C(=O)N2 (configuration not stated)
3. CC(C)(C)OC(=O)CC(NC(=O)OC(C)(C)C)C(=O)NC(C(=O)O)C(O)c1ccccc1 (configuration not stated)
4. COc1cc(-n2cnc(-c3ccc(Cl)cc3)c2)cc(OC)c1OC
5. O=C(O)c1ccccc1-c1ccccc1C(=O)Nc1ccc2c(c1)[nH]c(=O)c1ccccc12
6. COc1ccccc1/C=C/c1c(N)ncnc1Nc1cccc(Cl)c1
7. Cc1cc2cc3cc(C)c(N)cc3[n+](C)c2cc1N

Data returned:
> 34.2 µM
> 100 µM
> 100 µM
> 100 µM
> 100 µM
51.8 µM
4.82 µM

====

Assignment: determine reported TGI for the given compounds.
# System: UO-31 renal
# test_method_notes: NCI tumour cell line growth inhibition, 48 h

# example entries with known answers
>>> print(df.to_string())
                                   compound  observed_result
0  c1ccc2sc(C3(N4CCC5(CC4)OCCO5)CCCCC3)cc2c1         > 100 µM
1  N#CCCOCN(CO)c1nc(N(CO)COCCC#N)nc(N(CO)COCCC#N)n1          43.2 µM
2  CCOC(=O)C(C(=O)OCC)=C1N[C@H](C(=O)OCC)CS1         > 100 µM
3  N#Cc1c(N)nc(NCc2ccccc2)c(C#N)c1-c1ccccc1Cl         > 100 µM
4  CCCC(=O)Nc1ccc2c(c1)CN1C(=O)c3ccccc3C1=N2         > 100 µM

Here are 4 compounds. What values of TGI were reported for them?
1. C=C1CC2CC(=O)C(O)C(C1)C2 (stereo not given)
2. C=C(C)[C@@H]1CCC2=C[C@H](OC2=O)[C@@]2(C)C[C@@H]2C(=O)/C=C(/C)C(=O)[C@H]1OC(C)=O
3. Brc1ccccc1C=NC12CC3CC(CC(C3)C1)C2
4. CN(C)C1(N(C)C)Oc2c(c(=O)n(C)c(=O)n2C)C(c2ccccc2Br)C1(F)F (stereo not given)

Data returned:
> 100 µM
> 100 µM
> 100 µM
> 100 µM

Go through the items and report each one's TGI.
1. S=C(c1ccc2c(c1)OCO2)N1CCN(c2cccc(Cl)c2)CC1
2. CCOC(=O)N[C@@H]1C2CC(=O)C(O2)[C@@H]1OC (stereo not given in full)
3. C[C@]12CC[C@H]3[C@@H](CCC4=CC(=O)CC[C@@]43C)[C@@H]1CC[C@@H]2C(=O)Nc1ccc([N+](=O)[O-])c(C(F)(F)F)c1

Data returned:
> 72.5 µM
> 100 µM
32.8 µM

====

# System: OVCAR-3 ovarian
# test_method_notes: NCI tumour cell line growth inhibition, 48 h
For each entry below, report its TGI value.

>>> df
                                   molecule  observed_result
0  COc1cc(C2S/C(=C/c3ccccc3)C(=O)N2c2cc(Cl)c(Cl)cc2Cl)cc(OC)c1OC (configuration not stated)         > 100 µM
1    CN(C)CCNC1=CC(=O)c2nc3ccccc3c3ccnc1c23          16.4 µM
2  COc1cccc(Cn2c(-c3nonc3NC(C)=O)nc3ccccc32)c1         > 100 µM
3  NC(=O)NC1=NC(Cc2ccccc2)C(=O)N1Cc1ccccc1 (configuration not stated)         > 100 µM
4  Cc1ccc([N+](=O)[O-])cc1S(=O)(=O)Nc1ccc(C2=NN(C(=O)c3ccccc3)C(c3cccs3)C2)cc1 (configuration not stated)          45.5 µM

Batch of 4 molecules: report TGI for each.
1. N=c1n(Cc2ccccc2)c(N)cc(=O)n1Cc1ccccc1
2. CC(C)n1c(=O)n(C)c2cnc3cc(F)c(-c4ccc(OCCCN5CCCCC5)nc4)cc3c21
3. Cc1ccc2ccc3ccc(C)nc3c2n1
4. Cc1sc(Nc2ccccc2[N+](=O)[O-])c(C#N)c1C

Data returned:
["8.43 µM", "49.5 µM", "> 100 µM", "61.2 µM"]

Each molecule below has a reported value. Please supply its TGI.
1. N#C/C(=C1C=C/C(=N\O)C(Cl)=C\1)c1ccccc1
2. N#CCCSC(=S)C1CCCC1=N (configuration not stated)

Data returned:
1: 17 µM; 2: > 100 µM

Batch: TGI for all items listed.
1. CCCC(=O)NC(C(=O)OCC)(N1CCOCC1)C(F)(F)F (configuration not stated)
2. CCOC(=O)C(C(=O)OCC)=C1N[C@H](C(=O)OCC)CS1
3. COC1=CC(c2ccc[nH]2)=N/C1=C\c1[nH]c(C)c(C(C)=O)c1C
4. CC(=O)OC1Oc2cc(C)c(C)cc2-c2oc(=O)c(-c3ccc(F)cc3)cc21 (configuration not stated)

Data returned:
1. > 100 µM
2. > 100 µM
3. > 100 µM
4. 16.6 µM

Lab note: each molecule below needs its TGI filled in.
1. Cc1nn(-c2ccccc2)c2nc3c(nc12)C1=NCCN1C(c1ccc(Cl)cc1)N3 (configuration not stated)
2. C/C=N\n1c(C)c(C#N)c(C#N)c1N
3. Cn1c(=O)n2c(-c3ccccc3)c(-c3ccccc3)n2c1=O
4. C(=NCCCN1CCN(CCCN=Cc2cccc3ccccc23)CC1)c1cccc2ccccc12
5. CCOC(=O)N1CCN(c2nc(C)n(-c3ccccc3)c(=S)c2C#N)CC1
6. COc1cc(Nc2nc3cc(C(F)(F)F)ccc3nc2-c2ccccc2)cc(OC)c1OC
7. O=C(NCCNc1nccc(-c2c(-c3ccc(F)cc3)nc3sccn23)n1)c1ccccc1

Data returned:
7.18 µM
> 100 µM
> 100 µM
> 100 µM
> 100 µM
> 100 µM
> 100 µM

All values here come from PubChem BioAssay (NCI).
